# SYSTEM TESTED: pooled human IgG (human IgG1, 2, 3 and 4)
RECORDED ENDPOINT: Enzyme Activity Endpoint Assay: Fab′2 (ng/µL)
Answer with a number only, understood to be in ng/µL.

What value of Enzyme Activity Endpoint Assay: Fab′2 has been recorded for this entry: PRT-596 (protein) MANQEIRYSEETPSTITSVWTKGVTPPTDFIQNEDVLHAPYIANQGWYDITKTFNGKDDLLCGAATAGNMLHWWFDQNKEQIENYLKKHPEKQKINFNGEQMFDVKEAIDTKDSQTDSALFEYFKDKAFPYLSTKHLGVFPDHVIDMFINGYRLSLTNHGPTPVKRGTKDPRGGIFDAVFTRGDQSKLLTSRHDFKEKTLNEISDLIKKELTEGKALGLSHTYANVRINHVINLWGADFNAEGNLEAIYVTDSDSNASIGMKKYYVGVNSAGKVAISAKEIEGDNIGAQVLGLFTLSTGQDIWNQTNLEHHHHHH
753
